# assayed-target: Prostaglandin G/H synthase 1 (Homo sapiens);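 also: COX-1 enzyme inhibition, read out colorimetrically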
# condition-description: at 100 µM
# Description: Inhibition of COX1 (unknown origin) at 100 uM by colorimetric method
Would you mind labelling by inhibition? At or over 50% is condition met, under is condition not met.

Field: example entries. Status: answers known.
{"structure-string": "CCOC(=O)/C(=C/c1cccc(F)c1)CSc1nncn1C", "category": "condition not met"}
{"structure-string": "CCOC(=O)/C(=C/c1cccc(Cl)c1)CSc1nc(C)cc(C)n1", "category": "condition not met"}
{"structure-string": "CCOC(=O)/C(=C/c1ccc(CC)cc1)CSc1nc(C)cc(C)n1", "category": "condition met"}
{"structure-string": "COC(=O)/C(=C/c1ccc2ccccc2c1)CSc1nc(C)cc(C)n1", "category": "condition not met"}
{"structure-string": "CCOC(=O)/C(=C/c1ccc(C(C)C)cc1)CSc1nc(C)cc(C)n1", "category": "condition not met"}
{"structure-string": "COC(=O)/C(=C/c1ccc2ccccc2c1)CSc1nc2ccccc2s1", "category": "condition not met"}
{"structure-string": "CCOC(=O)/C(=C/c1ccc(C(C)C)cc1)CSc1nc2ccccc2o1", "category": "condition not met"}
{"structure-string": "COC(=O)/C(=C/c1ccc2ccccc2c1)CSc1nc2ccccc2o1", "category": "condition not met"}

Does COC(=O)/C(=C/c1ccc(OC)cc1)CSc1nc2ccccc2o1 have a reported inhibition of at least 50%?
condition not met

Does COC(=O)/C(=C/c1ccc(F)cc1)CSc1nc2ccccc2o1 have a reported inhibition of at least 50%?
condition not met

Does CCOC(=O)/C(=C/c1ccc(Br)cc1)CSc1nc(C)cc(C)n1 have a reported inhibition of at least 50%?
condition not met

Does COC(=O)/C(=C/c1ccc(C(F)(F)F)cc1)CSc1nc2ccccc2o1 have a reported inhibition of at least 50%?
condition not met

Does COC(=O)/C(=C/c1ccc(Cl)cc1)CSc1nc2ccccc2o1 have a reported inhibition of at least 50%?
condition not met

Does CCc1ccc(/C=C(\CSc2nncn2C)C(=O)OC)cc1 have a reported inhibition of at least 50%?
condition met

Does COC(=O)/C(=C/c1ccc(OC)cc1)CSc1nc(C)cc(C)n1 have a reported inhibition of at least 50%?
condition met

Does CCOC(=O)/C(=C/c1ccc(Br)cc1)CSc1nc2ccccc2o1 have a reported inhibition of at least 50%?
condition met

---

# assayed-target: Prostaglandin G/H synthase 2 (Homo sapiens)
# Sequence (P35354 whole entry): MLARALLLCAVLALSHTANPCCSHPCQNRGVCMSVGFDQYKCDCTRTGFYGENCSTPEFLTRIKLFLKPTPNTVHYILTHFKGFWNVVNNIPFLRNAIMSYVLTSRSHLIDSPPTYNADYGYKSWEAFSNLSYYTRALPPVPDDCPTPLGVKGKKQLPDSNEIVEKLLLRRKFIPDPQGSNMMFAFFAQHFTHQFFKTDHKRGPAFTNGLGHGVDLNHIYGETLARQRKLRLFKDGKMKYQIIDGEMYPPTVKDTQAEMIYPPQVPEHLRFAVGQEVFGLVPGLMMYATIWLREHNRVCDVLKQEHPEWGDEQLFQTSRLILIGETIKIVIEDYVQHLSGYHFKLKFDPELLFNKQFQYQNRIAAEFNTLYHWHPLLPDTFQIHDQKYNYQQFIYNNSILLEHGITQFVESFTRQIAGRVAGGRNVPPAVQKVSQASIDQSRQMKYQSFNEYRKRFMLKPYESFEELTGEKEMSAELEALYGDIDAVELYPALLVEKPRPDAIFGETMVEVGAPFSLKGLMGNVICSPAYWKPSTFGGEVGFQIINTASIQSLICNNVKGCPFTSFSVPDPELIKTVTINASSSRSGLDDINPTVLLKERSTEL
hey, just use 1 if measured IC50 is less than 4 µM, otherwise -1

{"structure-string": "CCOC(=O)/C(=C/c1cccc(Cl)c1)CSc1nc(C)cc(C)n1", "category": -1}
{"structure-string": "COC(=O)/C(=C/c1ccc2ccccc2c1)CSc1nc2ccccc2o1", "category": -1}
{"structure-string": "CCOC(=O)/C(=C/c1ccc(Br)cc1)CSc1nc(C)cc(C)n1", "category": 1}
{"structure-string": "COC(=O)/C(=C/c1ccc(OC)cc1)CSc1nc2ccccc2o1", "category": -1}

API: the following record is the query input.
Dear reviewer, please state whether COC(=O)/C(=C/c1ccc(C(F)(F)F)cc1)CSc1nc2ccccc2o1 has IC50 strictly beneath 4 µM.
1
